- test_system: T1, RSV F glycoprotein (NUF4) (respiratory syncytial virus)
- T1 chain 1: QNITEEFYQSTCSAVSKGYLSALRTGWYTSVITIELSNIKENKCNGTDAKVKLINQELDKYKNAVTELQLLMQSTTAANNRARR
- T1 chain 2: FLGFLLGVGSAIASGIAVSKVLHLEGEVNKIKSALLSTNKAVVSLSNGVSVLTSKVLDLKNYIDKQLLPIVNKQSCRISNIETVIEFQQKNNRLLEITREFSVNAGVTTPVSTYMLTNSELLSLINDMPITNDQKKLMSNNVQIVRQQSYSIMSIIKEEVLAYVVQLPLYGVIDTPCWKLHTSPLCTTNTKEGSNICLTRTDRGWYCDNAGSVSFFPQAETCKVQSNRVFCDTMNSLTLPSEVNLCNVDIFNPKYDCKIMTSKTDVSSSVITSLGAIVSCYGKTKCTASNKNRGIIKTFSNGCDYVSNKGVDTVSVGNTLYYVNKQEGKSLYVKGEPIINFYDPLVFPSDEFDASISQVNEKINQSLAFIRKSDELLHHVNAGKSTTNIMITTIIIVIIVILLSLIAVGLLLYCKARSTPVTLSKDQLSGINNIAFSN
- method_summary: SPR (BIAcore), mAb vs NUF4 (2:1)
The following binders are shown together with reported koff values.
Quick reminder: number only, in s⁻¹, skip the unit.

As a guide, the following entries are already answered.
binder	numeric_result
A4B4 IgG (antibody, V domains shown) VH: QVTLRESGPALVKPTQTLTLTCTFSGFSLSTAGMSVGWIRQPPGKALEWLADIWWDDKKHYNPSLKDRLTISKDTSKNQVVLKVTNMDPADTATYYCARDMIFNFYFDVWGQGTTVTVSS VL: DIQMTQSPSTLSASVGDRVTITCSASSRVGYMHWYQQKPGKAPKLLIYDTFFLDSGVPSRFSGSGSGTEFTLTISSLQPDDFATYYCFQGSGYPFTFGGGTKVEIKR	0.000401
P12f2 IgG (antibody, V domains shown) VH: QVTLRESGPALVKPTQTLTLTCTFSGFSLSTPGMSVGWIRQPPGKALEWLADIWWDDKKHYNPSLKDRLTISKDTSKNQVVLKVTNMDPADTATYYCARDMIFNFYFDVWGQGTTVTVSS VL: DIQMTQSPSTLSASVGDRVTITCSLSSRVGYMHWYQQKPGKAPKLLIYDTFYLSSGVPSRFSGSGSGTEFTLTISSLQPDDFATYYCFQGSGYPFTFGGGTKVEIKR	0.000236

Reported koff ( A17d4(1) IgG (antibody, V domains shown) VH: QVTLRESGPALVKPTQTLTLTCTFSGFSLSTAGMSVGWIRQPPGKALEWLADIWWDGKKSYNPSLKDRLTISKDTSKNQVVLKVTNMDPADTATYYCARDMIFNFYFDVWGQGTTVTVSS VL: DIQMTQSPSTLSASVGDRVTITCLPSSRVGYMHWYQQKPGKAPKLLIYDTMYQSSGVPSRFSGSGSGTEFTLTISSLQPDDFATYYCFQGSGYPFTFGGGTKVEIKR ) = 0.000292
